target: CDK4 (Homo sapiens, UniProt P11802); test: In vitro kinase inhibition IC50, luminescence (ADP Glo), retinoblastoma substrate; details: read-out: CDK4/D1 IC50
Sequence (P11802 whole entry): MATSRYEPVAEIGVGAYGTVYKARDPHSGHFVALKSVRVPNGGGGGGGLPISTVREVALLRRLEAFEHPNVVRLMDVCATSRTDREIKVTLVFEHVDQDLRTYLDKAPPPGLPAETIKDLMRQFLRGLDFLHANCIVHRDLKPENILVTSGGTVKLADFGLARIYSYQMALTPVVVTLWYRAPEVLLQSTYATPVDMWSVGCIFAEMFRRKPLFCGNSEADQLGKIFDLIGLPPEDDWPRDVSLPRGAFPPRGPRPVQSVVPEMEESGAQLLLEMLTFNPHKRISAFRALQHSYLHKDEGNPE
Sequence (P24385 whole entry partner): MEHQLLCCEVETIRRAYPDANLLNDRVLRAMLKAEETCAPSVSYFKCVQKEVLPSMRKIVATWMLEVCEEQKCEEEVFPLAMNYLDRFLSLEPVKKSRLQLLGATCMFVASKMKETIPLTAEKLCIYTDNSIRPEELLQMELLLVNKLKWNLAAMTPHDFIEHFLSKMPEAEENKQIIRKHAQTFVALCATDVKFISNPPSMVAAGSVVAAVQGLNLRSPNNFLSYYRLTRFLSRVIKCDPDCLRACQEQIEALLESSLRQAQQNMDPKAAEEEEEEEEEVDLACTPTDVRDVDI
pIC50: −log10 of the molar value.
attribute.measured: pIC50

For orientation, consider the following solved cases.
N#Cc1cc2cnc(Nc3ccc4c(c3)CCN(CCN)C4)nc2n(C2CCCC2)c1=O; 8.15
CCC(CC)n1c(=O)c(C#N)cc2cnc(NC3CCN(S(C)(=O)=O)CC3)nc21; 7.16
CN(C)Cc1c[nH]c2cc(Nc3ncc4cc(C#N)c(=O)n(C5CCCC5)c4n3)ccc12; 7.96
CS(=O)(=O)N1CCC[C@@H](Nc2ncc3cc(C#N)c(=O)n(C4CCCC4)c3n2)C1; 6.78
CC(C)S(=O)(=O)N1CCC(Nc2ncc3cc(C#N)c(=O)n(C4CCCC4)c3n2)CC1; 8.19

A = N#Cc1cc2cnc(NC3CCN(S(=O)(=O)C4CC4)CC3)nc2n(C2CCCC2)c1=O
B = CS(=O)(=O)N1CC[C@@H](Nc2ncc3cc(C#N)c(=O)n(C4CCCC4)c3n2)[C@H](F)C1
Select one: A or B . Criterion: greater recorded pIC50. Kindly give the label for the entry you pick. A

###

biological target: CDK4 (Homo sapiens, UniProt P11802); test: In vitro kinase inhibition IC50, luminescence (ADP Glo), retinoblastoma substrate; conditions: read-out: CDK4/D1 IC50
pIC50: −log10 of the molar value.
attribute.measured: pIC50

For orientation, consider the following solved cases.
CN(C)CCn1cc(Nc2ncc3cc(C#N)c(=O)n(C4CCCC4)c3n2)cn1; 7.16
N#Cc1cc2cnc(NC3CCN(S(=O)(=O)C(F)(F)F)CC3)nc2n(C2CCCC2)c1=O; 7.85
N#Cc1cc2cnc(Nc3ccc4c(c3)CCNC4)nc2n([C@H]2C[C@@H]3CC[C@H]2C3)c1=O (relative stereo); 7.92

I = N#Cc1cc2cnc(Nc3ccc(S(N)(=O)=O)cc3)nc2n(C2CCCC2)c1=O
II = N#Cc1cc2cnc(Nc3ccc4c(c3)C(=O)NCC4)nc2n(C2CCCC2)c1=O
Compare reported pIC50 values for I and II . Which is lower? Kindly give the label for the entry you pick. I

###

Target: CDK6 (Homo sapiens, UniProt Q00534)
Sequence (Q00534 whole entry): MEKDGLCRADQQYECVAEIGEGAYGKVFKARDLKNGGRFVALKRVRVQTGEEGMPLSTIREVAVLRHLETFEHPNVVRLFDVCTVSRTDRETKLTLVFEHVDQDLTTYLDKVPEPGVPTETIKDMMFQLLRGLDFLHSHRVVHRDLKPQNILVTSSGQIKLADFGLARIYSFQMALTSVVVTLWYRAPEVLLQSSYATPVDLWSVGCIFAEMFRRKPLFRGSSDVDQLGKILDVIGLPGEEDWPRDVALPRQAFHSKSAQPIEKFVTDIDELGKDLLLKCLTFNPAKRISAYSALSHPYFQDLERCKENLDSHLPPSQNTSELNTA
Sequence (P24385 whole entry partner): as the sequence (P24385 whole entry partner) above
Test: In vitro kinase inhibition IC50, luminescence (ADP Glo), retinoblastoma substrate
Details: read-out: CDK6/D1 IC50
Procedure: IC50 values of compounds against CDK4 and CDK6 were determined by luminescence using retinoblastoma as substrate. […] Readings were taken at 15 min and 45 min incubation after detection reagent was added in a Synergy Neo Plate reader (BioTek, Winooski, Vt.) at single excitation of 340 nm and Dual emission at 495 nm and 520 nm respectively. […]
attribute.measured: IC50 (nM)

For orientation, consider the following solved cases.
N#Cc1cc2cnc(Nc3cccc(C(N)=O)c3)nc2n(C2CCCC2)c1=O; 48
CN1CCc2ccc(Nc3ncc4cc(C#N)c(=O)n(C5CCCC5)c4n3)cc2C1; 9
N#Cc1cc2cnc(NC3CCN(S(=O)(=O)c4ccc(F)cc4)CC3)nc2n(C2CCCC2)c1=O; 7.1

a = CS(=O)(=O)N1CCC(Nc2ncc3cc(C#N)c(=O)n(C4CC5CC5C4)c3n2)CC1 (stereo not shown)
b = N#Cc1cc2cnc(Nc3ccc4c(c3)CCNC4)nc2n(C2CCCC2O)c1=O (stereo not shown)
c = CS(=O)(=O)N1CCC(Nc2ncc3cc(C#N)c(=O)n([C@H]4C[C@@H]5CC[C@H]4C5)c3n2)CC1 (racemic) [Compound No. 353]
Order field: IC50 | Direction: descending (largest first) Answer by naming the labels in the order asked. b, c, a
(b: 57 nM, c: 13 nM, a: 8.5 nM)

###

biological target: CDK6 (Homo sapiens, UniProt Q00534); assay: In vitro kinase inhibition IC50, luminescence (ADP Glo), retinoblastoma substrate; details: read-out: CDK6/D1 IC50
pIC50: −log10 of the molar value.
attribute.measured: pIC50

CCN(CC)CCOc1ccc(Nc2ncc3cc(C#N)c(=O)n(C4CCCC4)c3n2)cc1 [Compound No. 41]; 9.00
N#Cc1cc2cnc(Nc3ccc4c(c3)CCNC4)nc2n(C2CCCC2)c1=O [Compound No. 31]; 8.05
CS(=O)(=O)N1CCC(Nc2ncc3cc(C#N)c(=O)n(C45CC(C4)C5)c3n2)CC1 [Compound No. 369]; 8.26

I = CN1CCN(c2ccc(Nc3cc4c(cn3)cc(C#N)c(=O)n4C3CCCC3)cc2)CC1 [Compound No. 87]
II = CN1CCn2nc(Nc3ncc4cc(C#N)c(=O)n(C5CCCC5)c4n3)cc2C1 [Compound No. 52]
Compare reported pIC50 values for I and II . Which is lower? Kindly give the label for the entry you pick. I
(I: 7.68, II: 7.89)

A = N#Cc1cc2cnc(Nc3ccc4c(c3)CCN(CC(N)=O)C4)nc2n(C2CCCC2)c1=O [Compound No. 69]
B = CN1CCc2cc(Nc3ncc4cc(C#N)c(=O)n(C5CCCC5)c4n3)ccc2C1 [Compound No. 38]
C = N#Cc1cc2cnc(Nc3ccc4c(c3)CCNC4)cc2n(C2CCCC2)c1=O [Compound No. 90]
D = N#Cc1cc2cnc(Nc3ccc4c(c3)CN(CCN)CC4)nc2n(C2CCCC2)c1=O [Compound No. 65]
E = N#Cc1cc2cnc(Nc3ccc(C4CCNCC4)cc3)nc2n(C2CCCC2)c1=O [Compound No. 37]
In this exercise, place the 5 compounds in ascending sequence of their recorded pIC50. Answer by naming the labels in the order asked. C, D, A, E, B
(C: 6.94, D: 7.82, A: 8.15, E: 8.60, B: 9.00)

1 = CS(=O)(=O)N1CCC(Nc2cc3c(cn2)cc(C#N)c(=O)n3C2CCCC2)CC1 [Compound No. 303]
2 = CC1CN(c2ccc(Nc3ncc4cc(C#N)c(=O)n(C5CCCC5)c4n3)nc2)CCN1 (stereo not shown) [Compound No. 23]
Compare reported pIC50 values for 1 and 2 . Which is lower? Kindly give the label for the entry you pick. 2

###

target: CDK6 (Homo sapiens); assay: In vitro kinase inhibition IC50, luminescence (ADP Glo), retinoblastoma substrate; conditions: read-out: CDK6/D1 IC50
attribute.measured: IC50 (nM)

For orientation, consider the following solved cases.
N#Cc1cc2cnc(Nc3ccc(N4CCN5CCCCC5C4)c(F)c3)nc2n(C2CCCC2)c1=O (stereo not shown); 22
CN1CCN(c2ccc(Nc3ncc4cc(C#N)c(=O)n(C5CCCC5)c4n3)cc2F)CC1; 1
CN1CCN(c2ccc(Nc3ncc4cc(C#N)c(=O)n(Cc5ccccc5)c4n3)cc2)CC1; 7

1 = N#Cc1cc2cnc(Nc3ccc(N4CCNCC4)c(Cl)c3)nc2n(C2CCCC2)c1=O
2 = CS(=O)(=O)N1CCC(Nc2ncc3cc(C(F)F)c(=O)n([C@H]4C[C@H]5C[C@H]5C4)c3n2)CC1
Select one: 1 or 2 . Criterion: greater recorded IC50. Kindly give the label for the entry you pick. 1
(1: 9.5 nM, 2: 4.5 nM)

1 = COCCN1CCc2cc(Nc3ncc4cc(C#N)c(=O)n(C5CCCC5)c4n3)ccc2C1
2 = N#Cc1cc2cnc(Nc3ccc(C4CCNCC4)c(F)c3)nc2n(C2CCCC2)c1=O
Select one: 1 or 2 . Criterion: greater recorded IC50. Kindly give the label for the entry you pick. 1
(1: 5.5 nM, 2: 3 nM)

1 = CS(=O)(=O)N1CCC(Nc2ncc3cc(C#N)c(=O)n(C4CCCCC4)c3n2)CC1
2 = CS(=O)(=O)N1CCC(Nc2ncc3cc(C#N)c(=O)n([C@@H]4CCC(F)(F)C4)c3n2)CC1
3 = CCC(CC)n1c(=O)c(C#N)cc2cnc(NC3CCN(S(C)(=O)=O)CC3)nc21
4 = CN1CCN(c2ccc(Nc3ccc4cc(C#N)c(=O)n(C5CCCC5)c4n3)cc2)CC1
5 = N#Cc1cc2cnc(Nc3ccc(N4CCNCC4)cc3)nc2n(C2CCCc3ccccc32)c1=O (stereo not shown)
In this exercise, place the 5 molecules in ascending sequence of their recorded IC50. Answer by naming the labels in the order asked. 5, 1, 3, 2, 4
(5: 1.5 nM, 1: 7.4 nM, 3: 21 nM, 2: 65 nM, 4: 154 nM)

###

biological target: CDK4 (Homo sapiens); construct: purchased Invitrogen PR8064A; experiment: In vitro kinase inhibition IC50, luminescence (ADP Glo), retinoblastoma substrate; format: biochemical; details: read-out: CDK4/D1 IC50
attribute.measured: IC50 (nM)

For orientation, consider the following solved cases.
N#Cc1cc2cnc(Nc3ccc(N4CCNCC4=O)c(F)c3)nc2n(C2CCCC2)c1=O [Compound No. 57]; 6.5
N#Cc1cc2cnc(Nc3cnc4c(c3)CNCC4)nc2n(C2CCCC2)c1=O [Compound No. 77]; 132

1 = CC1CN(c2ccc(Nc3ncc4cc(C#N)c(=O)n(C5CCCC5)c4n3)nc2)CCN1 (stereo not shown) [Compound No. 23]
2 = CN(C)CC(=O)N1CCc2cc(Nc3ncc4cc(C#N)c(=O)n(C5CCCC5)c4n3)ccc2C1 [Compound No. 54]
3 = N#Cc1cc2cnc(Nc3ccc4c(c3)CCN(C(=O)CO)C4)nc2n(C2CCCC2)c1=O [Compound No. 70]
In this exercise, place the 3 compounds in ascending sequence of their recorded IC50. Answer by naming the labels in the order asked. 2, 3, 1

1 = CN(C)C1CCc2ccc(Nc3ncc4cc(C#N)c(=O)n(C5CCCC5)c4n3)cc2C1 (stereo not shown) [Compound No. 48]
2 = N#Cc1cc2cnc(Nc3ccc(C4CCNCC4)c(F)c3)nc2n(C2CCCC2)c1=O [Compound No. 43]
3 = N#Cc1cc2cnc(Nc3ccc4c(c3)CCNC4)nc2n(-c2c(F)cccc2F)c1=O [Compound No. 375]
4 = Cc1c(C#N)c(=O)n(C2CCCC2)c2nc(NC3CCN(S(C)(=O)=O)CC3)ncc12 [Compound No. 389]
Order field: IC50 | Direction: descending (largest first) Answer by naming the labels in the order asked. 3, 1, 4, 2
(3: 132 nM, 1: 14 nM, 4: 7.5 nM, 2: 5 nM)

Numbers sourced from patent US20220273659A1.
